Sourced from patent US20230057987A1

- TGT: T1, similar peptide SP-05-0007, source protein not stated peptide on HLA-A*02:01 (human)
- T1 peptide: KIFPALCTV
- TEST_SUMMARY: killing

{"BINDER": "TCR-11 (TCR, V domains shown) Valpha: IQVEQSPPDLILQEGANSTLRCNFSDSVNNLQWFHQNPWGQLINLFYIPSGTKQNGRLSATTVATERYSLLYISSSQTTDSGVYFCAVNTGTASKLTFGTGTRLQVTL Vbeta: GVTQTPKFQVLKTGQSMTLQCAQDMNHNSMYWYRQDPGMGLRLIYYSASEGTTDKGEVPNGYNVSRLNKREFSLRLESAAPSQTSVYFCASSPRGQGRSYEQYFGPGTRLTVT", "binding result": "no recognition"}
{"BINDER": "TCR-4 (TCR, V domains shown) Valpha: QSVAQPEDQVNVAEGNPLTVKCTYSVSGNPYLFWYVQYPNRGLQFLLKYITGDNLVKGSYGFEAEFNKSQTSFHLKKPSALVSDSALYFCAAPRDDKIIFGKGTRLHILP Vbeta: GVTQTPKFRVLKTGQSMTLLCAQDMNHEYMYWYRQDPGMGLRLIHYSVGEGTTAKGEVPDGYNVSRLKKQNFLLGLESAAPSQTSVYFCASSYLRTGGNEQFFGPGTRLTVL", "binding result": "no recognition"}
{"BINDER": "TCR-2 (TCR, V domains shown) Valpha: QKITQTQPGMFVQEKEAVTLDCTYDTSDQSYGLFWYKQPSSGEMIFLIYQGSYDEQNATEGRYSLNFQKARKSANLVISASQLGDSAMYFCAMREGSDAGGTSYGKLTFGQGTILTVHP Vbeta: GVIQSPRHLIKEKRETATLKCYPIPRHDTVYWYQQGPGQDPQFLISFYEKMQSDKGSIPDRFSAQQFSDYHSELNMSSLELGDSALYFCASSPSTGRLNTEAFFGQGTRLTVV", "binding result": "no recognition"}
